- Tested on: Plasmodium falciparum
- assay.name: GSK_TCMDC: Inhibition of Plasmodium falciparum Dd2 in whole red blood cells, using parasite LDH activity as an index of growth. Test compounds present at 2uM
- Format: functional
property.name: Inhibition (%)
Number in %, nothing else.

Previously resolved entries follow.
# molecule, property.name, value.measured
records = [
    ("CC(=O)Nc1ccc(CN2CCC(N(C)c3cc(NC(=O)c4cccs4)ccn3)CC2)cc1.O=C(O)C(F)(F)F", "Inhibition", 43),
    ("CC(=O)N(Cc1ccccc1-c1ccc(CNCCc2ccccc2)cc1)C1CCN(Cc2ccccc2)CC1.O=C(O)C(F)(F)F", "Inhibition", 85),
]

Prompt: Item CC(Cc1ccc(NC(=O)[C@H](C)NCCc2cccc(Cl)c2)cc1)NCCc1cccc(Cl)c1.Cl (stereo partly drawn) has what recorded Inhibition?
Completion: 54

Prompt: Item Cc1[nH]c2ccc(O)cc2c1C1CCN(CC2CCC(NC(=O)/C=C/c3c(Cl)cccc3Cl)CC2)CC1 (stereo not drawn) has what recorded Inhibition?
Completion: 93

Prompt: Any idea what its Inhibition is? The molecule is O=C(Cc1cc(=O)oc2cc(O)ccc12)NC1CCC(CN2CCC(c3c[nH]c4ccccc34)CC2)CC1 (stereo not drawn)
Completion: 0

Prompt: Any idea what its Inhibition is? The molecule is COc1ccc(CCNCc2ccc3nc(N)c(C)cc3c2)cc1.Cl
Completion: 15

Prompt: What value of Inhibition has been reported for the following molecule? O=C(Nc1ccc(Oc2ccccc2)cc1)N1CCC(CN2CCC(c3c[nH]c4ccccc34)CC2)CC1
Completion: 59

Prompt: Return reported Inhibition; argument: CC(Cc1ccc(Oc2ccccc2)cc1)NCC(O)c1cccc(C(F)(F)F)c1 (stereo not drawn)
Completion: 99
